Measured values drawn from paper PMC5388737 for this set.

Target System: CYP3A4 (Homo sapiens, UniProt P08684)
Sequence (P08684 whole entry): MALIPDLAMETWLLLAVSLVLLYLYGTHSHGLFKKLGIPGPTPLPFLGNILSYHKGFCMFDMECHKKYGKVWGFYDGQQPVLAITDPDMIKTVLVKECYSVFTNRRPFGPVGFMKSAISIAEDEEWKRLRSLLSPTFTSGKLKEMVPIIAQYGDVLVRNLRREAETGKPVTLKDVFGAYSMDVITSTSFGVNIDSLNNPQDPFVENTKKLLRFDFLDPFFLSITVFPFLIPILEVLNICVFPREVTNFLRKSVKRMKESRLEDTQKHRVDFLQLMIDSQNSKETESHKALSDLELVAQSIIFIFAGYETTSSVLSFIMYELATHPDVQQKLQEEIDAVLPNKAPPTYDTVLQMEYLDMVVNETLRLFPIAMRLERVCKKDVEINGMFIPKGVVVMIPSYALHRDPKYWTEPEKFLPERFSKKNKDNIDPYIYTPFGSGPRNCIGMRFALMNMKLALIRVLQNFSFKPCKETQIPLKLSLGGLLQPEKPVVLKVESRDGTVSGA
Run Description: in vitro
Run Parameters: recombinant enzyme, pH 7.4
Property Label: kinact (s⁻¹)

>  <Test Smiles>
CC[C@H]1OC(=O)[C@H](C)[C@@H](O[C@H]2C[C@@](C)(OC)[C@@H](O)[C@H](C)O2)[C@H](C)[C@@H](O[C@@H]2O[C@H](C)C[C@H](N(C)C)[C@H]2O)[C@](C)(O)C[C@@H](C)/C(=N\OCOCCOC)[C@H](C)[C@@H](O)[C@]1(C)O

>  <Property Label>
kinact

>  <Measured Number>
0.000715

$$$$

----------
Run Description: In vitro metabolic stability in human liver microsomes
Format: in vitro ADME
Run Parameters: HLM 1 mg/mL, 1 μM substrate, NADPH, read-out: Met. stability T1/2
Property Label: half-life at 1 μM (min)

>  <Test Smiles>
CC[C@H]1OC(=O)[C@H](C)[C@@H](O[C@H]2C[C@@](C)(OC)[C@@H](O)[C@H](C)O2)[C@H](C)[C@@H](O[C@@H]2O[C@H](C)C[C@H](N(C)C)[C@H]2O)[C@](C)(O)C[C@@H](C)/C(=N\OCOCCOC)[C@H](C)[C@@H](O)[C@]1(C)O

>  <Comparator>
=

>  <Measured Number>
38.1

$$$$
>  <Test Smiles>
CC[C@H]1OC(=O)[C@H](C)[C@@H](O[C@H]2C[C@@](C)(OC)[C@@H](O)[C@H](C)O2)[C@H](C)[C@@H](O[C@@H]2O[C@H](C)C[C@H](N(C)C)[C@H]2O)[C@](C)(O)C[C@@H](C)CN(C)[C@H](C)[C@@H](O)[C@]1(C)O

>  <Comparator>
>

>  <Measured Number>
60

$$$$
>  <Test Smiles>
CC[C@H]1OC(=O)[C@H](C)[C@@H](O[C@H]2C[C@@](C)(OC)[C@@H](O)[C@H](C)O2)[C@H](C)[C@@H](O[C@@H]2O[C@H](C)C[C@H](N(C)C)[C@H]2O)[C@](C)(OC)C[C@@H](C)C(=O)[C@H](C)[C@@H](O)[C@]1(C)O

>  <Comparator>
=

>  <Measured Number>
50.6

$$$$
>  <Test Smiles>
CC[C@H]1OC(=O)[C@H](C)[C@@H](O[C@H]2C[C@@](C)(OC)[C@@H](O)[C@H](C)O2)[C@H](C)[C@@H](O[C@@H]2O[C@H](C)C[C@H](N(C)C)[C@H]2O)[C@](C)(O)C[C@@H](C)C(=O)[C@H](C)[C@@H](O)[C@]1(C)O

>  <Comparator>
=

>  <Measured Number>
21.7

$$$$
